These measurements were taken from PubChem BioAssay AID1490.

Molecular target: 4'-phosphopantetheinyl transferase ffp (Bacillus subtilis)
Assay: qHTS Assay for Inhibitors of Bacillus subtilis Sfp phosphopantetheinyl transferase (PPTase);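 note: the enzyme is Sfp with the accession as filed and its product quenches rhodamine fluorescence; 0% = enzyme reaction without inhibitor and -100% = no enzyme wells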
Conditions: Biochemical Sfp PPTase activity
The campaign covered roughly 310,000 compounds. About 11,000 (3.5%) were called active. Another 4% or so got no clear call; they are omitted. What follows is part of a selection rich in actives, with near analogues and random picks from the rest.
Each entry below carries its reported largest response in the series, negative = inhibition.
measured.endpoint: largest response in the series, negative = inhibition (%)

> print(dat)
                                   molecule                           target.of.assay  reading.unit  observed.measurement
1  Cc1ccc(C2SCC(=O)N2c2ccccc2)cc1 (stereo unspecified)  4'-phosphopantetheinyl transferase ffp (Bacillus subtilis)             %                  -9.8
2  Cc1c(C(=O)N(C)CCc2cnn(C)c2)oc2c(F)cccc12  4'-phosphopantetheinyl transferase ffp (Bacillus subtilis)             %                  4.37
3  CS(=O)(=O)N(Cc1ccc(Cl)cc1)c1ccc(C(=O)NCCSCc2ccco2)cc1  4'-phosphopantetheinyl transferase ffp (Bacillus subtilis)             %                  22.6
4  Cc1ccc(C2CC2C(=O)NN)cc1 (stereo unspecified)  4'-phosphopantetheinyl transferase ffp (Bacillus subtilis)             %                  6.91
5  Cc1cc(C)cc(N(CC(=O)NCCSCc2ccco2)S(C)(=O)=O)c1  4'-phosphopantetheinyl transferase ffp (Bacillus subtilis)             %                  9.95
6  CC(C)c1nnc(NC(=O)CCC(=O)N2CCN(c3cccc(Cl)c3)CC2)s1  4'-phosphopantetheinyl transferase ffp (Bacillus subtilis)             %                 0.428
